target system: T1, Polyhistidine-tagged recombinant human GFAP expressed from E. coli (human, UniProt P14136 1-432)
T1 construct: also called His-tagged GFAP; not shown: polyhistidine tag
T1 sequence (P14136 whole entry): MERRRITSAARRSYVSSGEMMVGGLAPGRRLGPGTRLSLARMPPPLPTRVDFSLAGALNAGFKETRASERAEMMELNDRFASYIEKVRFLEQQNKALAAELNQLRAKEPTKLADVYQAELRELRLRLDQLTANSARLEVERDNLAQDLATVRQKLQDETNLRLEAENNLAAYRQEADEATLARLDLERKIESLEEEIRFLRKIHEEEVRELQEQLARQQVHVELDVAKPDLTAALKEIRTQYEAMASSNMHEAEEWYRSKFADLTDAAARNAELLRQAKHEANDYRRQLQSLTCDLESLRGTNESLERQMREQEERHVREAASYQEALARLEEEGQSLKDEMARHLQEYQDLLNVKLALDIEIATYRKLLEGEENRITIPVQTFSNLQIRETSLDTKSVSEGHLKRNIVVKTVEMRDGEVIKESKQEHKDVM
test description: BLI (Octet QKe); His-tagged GFAP on anti-Penta-HIS sensor, antibody in solution
result type: log10 of koff (log10 of the value in s⁻¹)

INSERT INTO assay_data (binder, assay_result) VALUES
  ('GFAP-11 (antibody, V domains shown, also called mouse anti-GFAP antibody GFAP-11) VH: QIQLVQSGPELKKPGETVKISCKASGYTFTNYGMNWVKQAPGEGLKWMGWINTNIGEPTYAEEFKGRFAFSLEASASTAYLQINNLKNEDTATYFCARWKNYGYFDYWGQGTTLTVSS VL: QIVLTQSPAIMSASLGERVTMTCTASSSVSSSYLHWYQQKPGSSPKLWIYSTSNLASGVPARFSGSGSGTSYSLTISSLEAEDAATYYCHQYHRSPYTFGGGTKLEIK', -3.90),
  ('GFAP-12 (antibody, V domains shown, also called mouse anti-GFAP antibody GFAP-12) VH: QVQLQQSGAELMKPGASVKISCKATGYTFSNYWIEWVKQRPGHGLEWIGEILPGSGSTNYNEKFKGKATFTADTSSNTAYMQLSSLTSEDSAVYYCAIYYGNYAGAMDYWGQGTSVTVSS VL: DIQMTQSPASLSASVGETVTITCRASENIYSYLAWYQQKQGKSPQLLVYNAKTLAEGVPSRFSGSGSGTQFSLKINSLQPEDFGSYYCQLHYGTPYTFGSGTKLEIK', -3.62),
  ('GFAP-17 (antibody, V domains shown, also called mouse anti-GFAP antibody GFAP-17) VH: EVKLEESGGGLVQPGGSMKLSCVASGFTFSYYWMSWVRQSPEKGLEWIAEIRLKSNIYATHYAASVKGRFTISRDDSKSSVYLQMNNLRAEDTGIYFCTRFGTGAMDYWGQGTSVTVSS VL: DIVMSQSPSSLAVSVGEKVTMSCKSSQSLLYRTNQKNYLAWYQQKPGQSPKLLIYWASSRESGVPDRFSGSGSGTDFTLTISSVKAEDLAVYYCQQYYSYPWTFGGGTKLEIK', -4.74),
  ('GFAP-16 (antibody, V domains shown, also called mouse anti-GFAP antibody GFAP-16) VH: QVQLQQSDAELVKPGASVKISCKASGYTFTDHTIHWVKQRPEQGLEWIGYIYPGDGSTKYNEKFKGKATLTADKSSSTVYMQLNSLTSEDSAVYFCARPAPYWNFDVWGAGTTVTVSS VL: DIQMTQSPSSLSASLGGKVTITCKASQDIKKNIAWYQHKPGKGPRLLIWYTSTLQPGIPSRFSGSGSGRDYSFSISNLEPEDIATYYCLQYDHLRTFGGGTKLEIK', -4.33),
  ('GFAP-19 (antibody, V domains shown, also called mouse anti-GFAP antibody GFAP-19) VH: EVQLVESGGGLVKPGGSPKLSCAASGFAFSSYDMSWVRQTPEKRLEWVAYISSGGGSTYYPDTMKGRFTISRDNAKNTLYLQMSSLKSEDTAMYYCARHYGTYLYYLDYWGQGTTLTVSS VL: DIVLTQSPATLSVTPGDRVSLSCRASQNISDFLHWYQQKSHESPRLLIKYASQSISGIPSRFSGSGSGSDFTLSINSVEPEDVGVYYCQNGHSFPPTFGGGTKLEIK', -4.19),
  ('GFAP-9 (antibody, V domains shown, also called mouse anti-GFAP antibody GFAP-9) VH: DVQLQESGPGLVKPSQSLSLTCSVTGYSITSGFYWSWIRQFPGNKLEWMGYISYDGSNNYNPSLKNRISITRDTSKNQFFLKLNSVTTEDTATYYCARAYGYDGAWFAYWGQGTLVTVSA VL: DIVMTQSQKFMSTSVGDRVSITCKASQNVRTAVAWYQQKPGQSPKALIYLASNRHTGVPDRFTGSGSGTDFTLTISNVQSEDLADYFCLQHWNNPYTFGGGTKLEIK', -3.15),
  ('GFAP-5 (antibody, V domains shown, also called mouse anti-GFAP antibody GFAP-5) VH: EVQLVESGGGLVKPGGSLKLSCAASGFTFSAYGMHWVRQAPEKGLEWIAYISSGSSTIYYADTVKGRFTISRDNAKNTLFLQMTSLRSEDTAMYYCASSYALDYWGQGTSVTVSS VL: DVVMTQTPLSLPVSLGDQASISCRSSQSLVYSNGNTYLHWYLQKPGQSPKLLIYKVSNRFSGVPDRFSGSGSGTDFTLKISRVEAEDLGVYFCSQSTHVPYTFGSGTKLEIK', -3.97),
  ('GFAP-18 (antibody, V domains shown, also called mouse anti-GFAP antibody GFAP-18) VH: EVILVESGGGLVKPGGSLKVSCAVSGFTFSNFAMSWVRQTPEKRLEWVASISSGGTTYYPDNVKGRFTISRDNARNIMYLQMSSLRSEDTAMYFCARGGLHYFGYWGQGTTLTVSS VL: DIVMTQSHKFMSTSVGDRVSITCKASQDVNTAVAWYQQKPGQSLKLLIYSASYRYIGVPDRFTGSGSGTDFTFTINSVQAEDLAVYYCHQYYSTPLTFGTGTKLELK', -4.60),
  ('GFAP-1 (antibody, V domains shown, also called mouse anti-GFAP antibody GFAP-1) VH: EVHLQQSGTVLARPGASVKMSCKASGYSFTSYWMHWVKQRPGQGLEWIGAFYPENSDTNYNQKFKGKARLTAVTSANTAYMELNSLTNEDSAVYYCTRPLLFSAYFDFWGQGTTLTVSS VL: DVLMTQTPLSLPVSLGDQASISCRSSQSIVHSYGNTYLEWYLQKPGLSPKLLIYKVSNRFSGVPDRFSGSGSGTDFTLTISRVEAEDLGVYYCFQGSHVPYTFGGGTKLEIK', -5.77),
  ('GFAP-14 (antibody, V domains shown, also called mouse anti-GFAP antibody GFAP-14) VH: DVQLVESGGGSVQPGGSRKLSCAASGFTFSSFGMHWVRQAPEKGLEWVAYISSDSNTVYYADTVKGRFTISRDNPKNTLFLQMTSLRSEDTAMYYCARYAMDYWGQGTSVTVSS VL: QIVLTQSPALMSASPGEKVTMTCSASSSVSYMYWYQQKPRSSPKPWIYLTSNLASGVPARFSGSGSGTSYSLTISSMEAEDAATYYCQQWSSNPPTFGAGTKLELK', -4.08),
  ('GFAP-2 (antibody, V domains shown, also called mouse anti-GFAP antibody GFAP-2) VH: DVQLVESGGGLVQPGGSRKLSCAASGFTFSSFGMHWVRQAPEKGLEWVAYISSGSSIIYYADTVKGRFTISRDNPKNTLFLQMTSLRSEDTAMYYCTGSDWGSFAYWGQGTLVTVSA VL: DVVMTQTPLSLPVSLGDQASISCRSSQSLVYSNGNTYLHWYLQKPGQSPKLLIYKVSNRFFGVPDRFSGSGSGTDFTLKISRVEAEDLGVYFCSQSTHVPYTFGGGTKLEIK', -4.48);
